- testedOn: T1, 14-3-3τ (full length) (human, UniProt P27348 1-245)
- T1 chain: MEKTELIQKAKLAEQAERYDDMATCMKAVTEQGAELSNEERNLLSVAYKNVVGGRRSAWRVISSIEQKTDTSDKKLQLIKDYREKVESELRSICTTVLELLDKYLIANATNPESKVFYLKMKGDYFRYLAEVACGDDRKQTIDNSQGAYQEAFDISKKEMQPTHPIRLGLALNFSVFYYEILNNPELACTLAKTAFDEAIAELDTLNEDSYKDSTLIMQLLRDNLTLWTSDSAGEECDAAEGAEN
- assaySummary: FP
Non-standard residues stand in square brackets, D forms with d. No end group written: not given here. *: point of attachment. FITC = O=C1OC2(c3ccc(O)cc3Oc3cc(O)ccc32)c2ccc(NC(=S)*)cc21; pS = N[C@@H](COP(=O)(O)O)C(=O)O; Ahx = NCCCCCC(=O)O
assayEndpoint: Kd (µM)

{"columns": ["binder", "unitString", "experimentalValue"],
 "data": [
  ["{FITC-Ahx}-LLRSH[pS]MPSAAC (also: phosphoserine at 542, position not mapped, Schnurri-3 (SHN3, transcription factor HIVEP3), human, 12-mer around phosphorylated Ser542; also called SHN3pS542-FITC; the FITC-labelled form; source: synthetic peptide, bought: GenScript (purity >95%)) [SHN3pS542 peptide, N-terminally FITC-Ahx-labelled]", "µM", 1.91]
]}

These entries and their values trace back to paper PMC8329713.
